For each of the compounds below, state its GI50.
- Tested on: NCI-H23
- Assay overview: NCI tumour cell line growth inhibition, 48 h
Activity calls are given as the source filed them. Cut-off read from the data, not from the text of the source: active = GI50 up to about 1.1 µM and inactive = higher.

Ask: Give the measured GI50 for OCC(O)C(OC1OC(CO)C(O)C(O)C1O)c1nn(-c2ccc(F)cc2)c2nc3cc(Cl)c(Cl)cc3cc12 (stereo unspecified)
Result: > 100 µM (inactive)

Ask: Retrieve GI50 measured for CCOc1cccc2sc(N)nc12 and print it.
Result: > 100 µM (inactive)

Ask: Please report the measured GI50 for C/C1=C\CC/C(C)=C/C=C(/C(C)C)CC/C(C(=O)O)=C/CC1 [CROTOCEMBRANEIC ACID]
Result: 36.5 µM (inactive)

Ask: Name the recorded GI50 of the compound listed here: O=CC1OC(=O)c2cc(O)c(O)c(O)c2-c2c(cc(O)c(O)c2O)C(=O)OC1C(O)C(O)CO (stereo unspecified)
Result: > 100 µM (inactive)

Ask: # return recorded GI50 for entry CCOc1ccc(NCC(=O)N2CC(=O)Nc3ccccc32)cc1
Result: > 100 µM (inactive)

Ask: Answer with the recorded GI50 for the compound listed here: N#CC(c1ccccc1)N(CCOCCOCCN(C(=O)c1ccccc1)C(C#N)c1ccccc1)C(=O)c1ccccc1 (stereo unspecified)
Result: 84.7 µM (inactive)

Ask: Give GI50 for the following compound: CCOC(=O)/C(C#N)=C1/C(O)=C(C(=O)OC)C(C(=O)OC)=C1C(=O)OC.c1ccncc1
Result: > 100 µM (inactive)

Ask: Assign GI50 to the following record: O=C1C(Br)=CC2(C=C1Br)CCNC1=C2C(=O)c2cccnc2C1=O
Result: 4.07 µM (inactive)

Ask: Supply GI50 value. Item: Nc1ncnc2c1ncn2C1OC(CO)=CC1O (stereo unspecified)
Result: > 37.5 µM (inactive)

Ask: Look up and state reported GI50 for N#CC1=C(N)OC2=C(CSc3ccccc32)C1c1ccc(Br)cc1 (stereo unspecified)
Result: 9.75 µM (inactive)

Ask: For the compound CCC(=O)NC(Nc1ccc(O)cc1)(C(F)(F)F)C(F)(F)F , give its measured GI50 value.
Result: 67.8 µM (inactive)

Ask: Tell us which GI50 value is on record for C[N+](C)(C)CC(=O)N/N=C(\CCC(=O)NCCc1ccccc1)CC(=O)c1ccccc1
Result: > 100 µM (inactive)

Ask: Output GI50 of CC1=CC[C@@]2(C)[C@@H]([C@@H]1C)[C@H]1CC[C@@H]3[C@@]4(C)CC[C@H](O)C(C)(C)[C@@H]4CC[C@@]3(C)[C@]1(C)C[C@@H]2O
Result: 25.6 µM (inactive)

Ask: Read the entry C=CCOC1OC(CS(=O)(=O)O)C(OC(C)=O)C(OC(C)=O)C1OC(C)=O (stereo unspecified) and write its reported GI50.
Result: > 100 µM (inactive)

Ask: Determine from records and report GI50 for O=C(O)CSc1ccc([N+](=O)[O-])cc1[N+](=O)[O-]
Result: > 100 µM (inactive)

Ask: Give the reported GI50 for this compound. NCCNc1ccc(NCCN)c2c1C(=O)c1c(O)ccc(O)c1C2=O
Result: 0.00728 µM (active)

Ask: In one line, give reported GI50 of the entry N#CCC(=O)N/N=C\C(O)C(O)C(O)C(O)CO (stereo unspecified) .
Result: > 100 µM (inactive)

Ask: Supply GI50 value. Item: N#CC1(C=O)c2ccccc2C=CN1C(=O)c1ccccc1 (stereo unspecified)
Result: 41.7 µM (inactive)

Ask: For the compound Oc1cccc2ccc(SSc3ccc4cccc(O)c4n3)nc12 , report GI50.
Result: 16.9 µM (inactive)

Ask: Provide only the value of recorded GI50 for COc1ccc(CCCNC(=O)c2cc(OC)c(OC)cc2CCO)cc1OC
Result: > 100 µM (inactive)

Ask: Indicate its recorded GI50; the compound in question is CCc1nnc(-c2nsc3ccccc23)s1
Result: > 100 µM (inactive)

---

Assignment: determine reported GI50 for the given molecules.
- Tested on: HCT-15

Ask: Please indicate GI50 recorded for CCCCC(O)(c1ccccc1)C(O)(c1ccccc1)c1c(F)c(F)c(F)c(F)c1F (stereo unspecified)
Result: 13.5 µM

Ask: Provide one value: measured GI50 of ClCc1ccc(C2OCCO2)cc1
Result: 16.7 µM

Ask: Note GI50 for the molecule shown: NC(=O)C(=O)N/N=C1\C(=O)N(c2ccc(Cl)cc2Cl)C(=O)C1C(=O)Nc1ccc(Cl)cc1Cl (stereo unspecified)
Result: > 100 µM

Ask: Retrieve GI50 measured for CSc1nc2c(ncn2C2OC(CO)C(O)C(O)C2O)c(=O)[nH]1 (stereo unspecified) and print it.
Result: > 100 µM

Ask: Return GI50 (reported value) for this molecule: N#CCC(=O)N/N=C\C(O)C(O)C(O)C(O)CO (stereo unspecified)
Result: > 100 µM

Ask: Answer with reported GI50 of c1ccc2sc(SCSc3nc4ccccc4s3)nc2c1
Result: 20.6 µM

Ask: Tell me GI50 reported for CCOc1ccc(NC(=O)/C(=N\NC(C)(C)C)C2C(=O)Nc3ccccc3[S+]2[O-])cc1 (stereo unspecified)
Result: > 100 µM

Ask: Look up GI50 of O=P(O)(O)c1ccc(-c2ccc(I)cc2)cc1 and report it.
Result: > 100 µM

Ask: Give GI50 for Nc1ncnc2c1ncn2C1OC(CO)=CC1O (stereo unspecified)
Result: > 37.5 µM

Ask: Tell us which GI50 value is on record for CCN(CC)c1ccc2cc(-c3nnc(-c4ccccc4)[nH]3)c(=O)oc2c1
Result: > 100 µM

Ask: # return recorded GI50 for entry COc1cc2c(c(OC)c1OC)-c1ccc(SC)c(=O)cc1[C@@H](NCc1ccc(C#N)cc1)CC2
Result: 0.00472 µM

---

- Tested on: MCF7
- Assay overview: NCI tumour cell line growth inhibition, 48 h
The source made the active and inactive calls. Rule as the data show it: active = GI50 up to about 1.1 µM and inactive = higher.
Endpoint label: GI50

Ask: Give the reported GI50 for this molecule. COc1cc([C@@H]2c3cc4c(cc3[C@@H](Nc3ccccc3C(=O)c3ccccc3)[C@H]3COC(=O)[C@H]23)OCO4)cc(OC)c1OC
Result: 0.379 µM (active)

Ask: Tell me GI50 reported for Cc1ccc(N/C(Sc2ccccc2)=C(/C(Cl)=C(Cl)Cl)[N+](=O)[O-])c(C)c1
Result: 14.4 µM (inactive)

Ask: Respond only with GI50 recorded for O=c1ccn([C@@H]2C[C@@H]2CO)c(=O)[nH]1
Result: > 100 µM (inactive)

Ask: Using known records, supply GI50 for O=C1c2ccccc2-n2c1nc1ccc([N+](=O)[O-])cc1c2=O
Result: 11.7 µM (inactive)

Ask: Let me know recorded GI50 for CC(C)(C)OC(=O)N1CCCC1=O , thanks.
Result: > 10 µM (inactive)

Ask: Consider the molecule CCCC(=O)OCC1OC(n2cc(F)c(=O)[nH]c2=O)CC1O (configuration not stated) and give its recorded GI50.
Result: 0.00463 µM (active)

Ask: Consider the molecule O=c1c2cc(I)ccc2nc(S)n1Cc1ccccc1 . State its measured GI50.
Result: 28.1 µM (inactive)

Ask: Could you please provide reported GI50 for COc1cc(/C=N/NC(=O)c2c(Cl)c(Cl)c(Cl)c(Cl)c2-c2nc3cc(C(=O)c4ccccc4)ccc3[nH]2)ccc1O ? Thanks!
Result: 26.5 µM (inactive)

Ask: Indicate the recorded GI50 value for this molecule: CO/N=C(/C)c1cccc(Nc2nc3ccc(Cl)cc3c3[nH]c4ccccc4c23)c1
Result: 10.3 µM (inactive)

Ask: Indicate its recorded GI50; the molecule in question is CCC(=O)NC(Nc1ccc(O)cc1)(C(F)(F)F)C(F)(F)F
Result: 46.3 µM (inactive)

Ask: Input O=c1oc2cc(O)ccc2cc1-c1nc2ccccc2o1 , output reported GI50.
Result: 32.8 µM (inactive)

Ask: Write down GI50 measured for item O=C(c1ccco1)N(C(=O)N1CCCCC1)c1ccccc1
Result: > 100 µM (inactive)

Ask: Specify GI50 for Cc1cccc(/C=N/NC(=S)Nc2ccccc2)n1 and stop.
Result: 2.89 µM (inactive)

Ask: Tell us which GI50 value is on record for Nc1ncc(Cc2ccc3c(c2)OCO3)c(N)n1
Result: > 100 µM (inactive)

Ask: Return the recorded GI50 value; entry: O=C1CC(Br)c2c(Br)sc(Br)c21 (configuration not stated)
Result: 16.5 µM (inactive)

Ask: Report GI50 for Cc1ccc(/C=C2\CNC/C(=C\c3ccc(C)cc3)C2=O)cc1
Result: 0.513 µM (active)

Ask: # return recorded GI50 for input Cc1ccc(C2SCc3nc4ccccc4n32)cc1 (configuration not stated)
Result: 4.68 µM (inactive)

Ask: Look up and report measured GI50 for this entry: COc1ccc2c(c1OC)OCC(CN(C)C)C2=O (configuration not stated)
Result: 8.95 µM (inactive)

Ask: Given CC1=C(C(=O)Nc2cccc3c2C(=O)NC3=O)CC(C(=O)Nc2cccc3c2C(=O)NC3=O)=C(C)N1 , respond with its GI50.
Result: > 100 µM (inactive)

Ask: Given the molecule C/C(=C/C(=O)Nc1ccccc1)Nc1onc(C)c1C , write its reported GI50.
Result: > 100 µM (inactive)

Ask: State its GI50: Cc1cc(NS(=O)(=O)c2ccc(Nc3c4ccccc4nc4ccc(C(=O)Nc5ccc(S(=O)(=O)N=C(N)N)cc5)cc34)cc2)no1
Result: > 100 µM (inactive)

Ask: Give the measured GI50 for COC(=O)c1ccc(/C=C2\Cc3ccccc3C2=O)cc1
Result: > 100 µM (inactive)

Each recorded value in this set is attributed to ChEMBL document CHEMBL1201862.
